# reported ring closure, conversion by HPLC (% (semiquantitative, mass spectrometry)); entries follow
assay: tandem ring-opening/ring-closing metathesis (ROM-RCM) of side-chain norbornene with two Glu allyl esters to bicyclic peptide; Hoveyda-Grubbs 2nd gen (M720), two portions (library procedure); conditions: the molecule shown is the open-chain precursor; 31-membered ring; 1,2-dichloroethane; resin; 70.0 °C
quantity: ring closure, conversion by HPLC (% (semiquantitative, mass spectrometry))

>  <substance.smiles>
C=CCOC(=O)CC[C@H](NC(=O)[C@H](CC(C)C)NC(=O)[C@H](C)NC(=O)[C@H](CCCCNC(=O)[C@@H]1C[C@H]2C=C[C@@H]1C2)NC(=O)[C@@H](NC(=O)[C@@H]1CCCN1C(=O)[C@@H](NC(=O)[C@H](Cc1ccccc1)NC(=O)[C@H](CCC(=O)OCC=C)NC(=O)OCC1c2ccccc2-c2ccccc21)[C@@H](C)CC)C(C)C)C(N)=O

>  <val>
14

$$$$
>  <substance.smiles>
C=CCOC(=O)CC[C@H](NC(=O)[C@H](CC(C)C)NC(=O)[C@H](C)NC(=O)[C@H](CCCCNC(=O)[C@H]1C[C@H]2C=C[C@@H]1C2)NC(=O)[C@@H](NC(=O)[C@@H]1CCCN1C(=O)[C@@H](NC(=O)[C@H](Cc1ccccc1)NC(=O)[C@H](CCC(=O)OCC=C)NC(=O)OCC1c2ccccc2-c2ccccc21)[C@@H](C)CC)C(C)C)C(N)=O

>  <val>
80

$$$$
